Assay system: shed MICA002 polypeptide (human) (UniProt Q29983)
Protocol summary: capture ELISA (anti-hFc / antibody / shed antigen / biotin-6D4)
Reported endpoint: EC50 (µg/mL)

[[record]]
binder = "#38 (antibody, V domains shown) VH: QVQLQQSGAELARPGASVKLSCKASGYTFSIHWMQWVKQRPGQGLEWIGAIYPGNGDTKYTQKFKGKATLTADKSSSTAYMQLSNLASEDSAVYYCATLYGNYEAYWGQGTLVTVSA VL: DIVLTQSPASLSASVGETVTITCGASENIYGALNWYQRKQGKSPQLLIYGTTNLADGMSSRFSGSGSGRQYSLKISSLHPDDVATYYCQNVLTTPPWTFGGGTKLEIK"
reported_endpoint = "EC50"
unit_spec = "µg/mL"
measured_number = 0.04

[[record]]
binder = "3F9 (antibody, human IgG1, kappa, V domains shown) VH: QVQLVESGGGLVKPGGSLRLSCAASGFTFSNYAMSWIRQAPGKGLEWVSYISPGGDYIYYADSVKGRFTISRDNAKNSLYLQMNSLRAEDTAVYYCTTDRRHYGSYAMDYWGQGTLVTVSS VL: DIVMTQSPLSLPVTPGEPASISCRSSKSLLHSNLNTYLYWFLQKPGQSPQILIYRMSNLASGVPDRFSGSGSGTAFTLKISRVEAEDVGVYYCMQHLEYPFTFGPGTKLEIKR"
reported_endpoint = "EC50"
unit_spec = "µg/mL"
measured_number = 0.09

[[record]]
binder = "#34 (antibody, V domains shown) VH: QVQLKQSGPELVKPGASVKVSCKASGYAFTKYNIYWVKQSHGKSLEWIGYIDPYNGGTVQNQKFKGKATLTVDKSSSTAYMHLNSLTSEDSAVYYCATTDGYSLFTYWGQGTLVTVSS VL: DIVLTQSPTTMAASPGEKITITCSASSSISSNYLHWYQQKPGFSPKLLIYRTSNLASGVPARFSGSGSGTSYSLTIGTMEAEDVATYYCQQGSSIPFTFGSGTKLEIK"
reported_endpoint = "EC50"
unit_spec = "µg/mL"
measured_number = 0.34


The values you see were collected from patent US20250368742A1.
